Recorded viability, T/C for the following molecules
Test system: 276233-004-R-J1-PDC complex spheroid viability;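 further: spheroids exposed to drugs for seven days; 100% = DMSO vehicle control viability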
Assay: Anticancer human tumor 276233-004-R-J1-PDC patient-derived colon adenocarcinoma cell line growth inhibition [GQUAD]
Details: second compound 3.16 µM; first compound 0.316 µM; active compounds read low
Please respond with the number in % and leave the unit unwritten.

Known viability, T/C results, listed for orientation:
Exercise: # return recorded viability, T/C for entry CC1COCCN1c1cc(C2(S(C)(=N)=O)CC2)nc(-c2ccnc3[nH]ccc23)n1 (centres undefined) + Cc1[nH]c2ccc(F)cc2c1-c1nc2c3cccnc3c3ncccc3c2[nH]1
Solution: 55.9

Exercise: # return recorded viability, T/C for entry C=CCn1c(=O)c2cnc(Nc3ccc(N4CCN(C)CC4)cc3)nc2n1-c1cccc(C(C)(C)O)n1 + CN(C)c1ccc(Nc2c3ccc(NC(=O)CCN4CCCC4)cc3nc3cc(NC(=O)CCN4CCCC4)ccc23)cc1
Solution: 57.2

Exercise: # return recorded viability, T/C for entry COc1cccc2c1C(=O)c1c(O)c3c(c(O)c1C2=O)CC(O)(C(=O)CO)CC3OC1CC(N)C(O)C(C)O1 (centres undefined) + CN(C)c1ccc(Nc2c3ccc(NC(=O)CCN4CCCC4)cc3nc3cc(NC(=O)CCN4CCCC4)ccc23)cc1
Solution: 56.8

Would you kindly look at the next entry?
Exercise: # return recorded viability, T/C for entry Cc1[nH]c2ccccc2c1CCNCc1ccc(/C=C/C(=O)NO)cc1 + Cc1cnc(CNC(=O)c2c(=O)c3ccc(N4CCCN(C)CC4)nc3n3c2sc2ccccc23)cn1
Solution: 9.8

Value source: PubChem BioAssay AID2060496
